Assay: NCI Yeast Anticancer Drug Screen. Data for the rad18 strain (AID 177)
Details: S. cerevisiae rad18 mutant growth inhibition; at 3.7 µM; stronger effect = higher value
Compounds without any hit were thinned out: in the full panel of roughly 79,000, 15% have a hit.
Measured growth inhibition accompanies every entry in the list below.
Result Type: growth inhibition (%)

* O=C(C[n+]1ccc2ccccc2c1)c1ccc2ccccc2c1 | -24
* Cc1ccc(Sc2ccccc2N)cc1 | -13
* CCCC/C=C/C(C)(C(=O)OCC)C(=O)OCC | 1
* COc1cc(C2c3cc4c(cc3OC(OC(C)=O)C2C)OCO4)cc(OC)c1OC (stereo unspecified) | -4
* Clc1ccc2c(c1)N(CCCN1CCCC13CCCCC3)c1ccccc1S2 | -1
* CCCCCCCCCCCC(O)S(=O)(=O)O (stereo unspecified) | 1
* O=C1Nc2ccccc2/C1=C/c1ccccc1 | -1
* O=C(O)CNC(=S)Nc1ccccc1 | -17
* CCN(CC)CCN(C)CCc1ccc(Br)cc1 | 32
* O=C1c2ccccc2C(=O)c2cc(CCl)ccc21 | 22
* COc1ccc2[nH]cc([C@@H]3C4CCC(C4)[C@H]3NCc3cccc(CN[C@H]4C5CCC(C5)[C@@H]4c4c[nH]c5ccc(OC)cc45)c3)c2c1 | -10
